Each entry below carries its reported growth inhibition.
system: Sporothrix schenckii ATCC 32286; assay: growth inhibition relative to untreated control; higher = more growth inhibition (more antifungal activity), active = 80 or more; extreme values may be limits of the assay; conditions: 1 µM; 48 h

# molecule, unitInfo, growth inhibition
data = [
    ("Oc1c(I)cc(I)c2cccnc12", "%", 94.5),
    ("COc1ccccc1CNC(=O)c1cc(C2CC2)nc2c1cnn2C(C)C", "%", 0),
    ("c1cncc(NCc2ccc(-c3cc4ccncc4cc3OC3CCNCC3)s2)c1", "%", 3),
    ("c1ccc(Oc2ccc(-c3cc(CN4CCOCC4)[nH]n3)cc2)cc1", "%", 5.75),
    ("CCCNC(=O)N1CCC2(CC1)CC(=O)c1cc(C)ccc1O2", "%", 2.25),
    ("CCOC(=O)c1c(NC(=O)c2c(F)c(F)c(F)c(F)c2F)sc(C(N)=O)c1C", "%", 0),
    ("Cc1ccc2oc(-c3cc(NC(=O)Cc4ccccc4)ccc3Cl)nc2c1", "%", 11.2),
    ("CC(Oc1cccc(Cl)c1)C(=O)Nc1ccc2oc(-c3ccncc3)nc2c1 (stereo unspecified)", "%", 4.25),
    ("Cc1cc(NCC(C)C)c2[nH]nc(-c3ccccc3)c2n1", "%", 0.75),
    ("O=C(N[C@H](Cc1ccccc1)C(=O)Nc1ccccc1N1CCOCC1)c1cccs1", "%", 7.25),
    ("CCCCN(CCCC)c1c(C#N)cc(S(=O)(=O)Nc2ccccc2)cc1C#N", "%", 23.8),
]
